Molecular target: MAPK14 (human)
Assay: In vitro Inhibition of VEGF Stimulated MAPK Activation
Entries and their pIC50 values follow.
pIC50 here is simply -log10 of the concentration when that concentration is written in mol/L.

Example results:
[[record]]
compound = "COc1cc2nccc(Oc3ccc(NC(=O)Nc4ccc(Br)cn4)c(C)c3C)c2cc1OC"
tested_target = "MAPK14 (human)"
observed_measurement = 8.36

[[record]]
compound = "COCCOc1cc2nccc(Oc3ccc(NC(=O)Nc4ccccc4OC)c(C)c3C)c2cc1OC"
tested_target = "MAPK14 (human)"
observed_measurement = 8.19

[[record]]
compound = "CCC(C)NC(=O)Nc1ccc(Oc2ncnc3cc(OC)c(OC)cc23)cc1 (stereo not given)"
tested_target = "MAPK14 (human)"
observed_measurement = 6.46


Form field: reported pIC50 of "COCCOc1cc2nccc(Oc3ccc(NC(=O)Nc4ccc(F)cc4F)c(Cl)c3)c2cc1OC"
9.30

Form field: reported pIC50 of "COc1cc2nccc(Oc3ccc(NC(=O)Nc4ccc(C)cn4)c(Cl)c3)c2cc1OC"
8.07

Form field: reported pIC50 of "COc1cc2ncnc(Oc3ccc(NC(=O)Nc4ccc(F)cc4F)c(F)c3)c2cc1OC"
8.74

Form field: reported pIC50 of "COc1ccccc1NC(=O)Nc1cc(C)c(Oc2ccnc3cc(OC)c(OC)cc23)cc1C"
8.42

Form field: reported pIC50 of "CCCCCNC(=O)Nc1ccc(Oc2ncnc3cc(OC)c(OC)cc23)cc1"
7.68

Where do these numbers come from? They come from the Kinase Knowledgebase extract (Sharma et al. 2016).
